Measured DC50 values are reported for all entries that follow.
target: SMARCA4 (Homo sapiens, UniProt P51532); construct: SMARCA2/SMARCA4 protein degradation selectivity in MV4-11 cells; endogenous in cells; host or cells: MV4-11; assay: SMARCA4 Western blot degradation in MV4-11 cells; type: cell-based; settings: MV4-11 cells, 24 h; read-out: SMARCA4 MSD MV411 degradation 24 h: Mean external-Abs DC50
Sequence (P51532 whole entry): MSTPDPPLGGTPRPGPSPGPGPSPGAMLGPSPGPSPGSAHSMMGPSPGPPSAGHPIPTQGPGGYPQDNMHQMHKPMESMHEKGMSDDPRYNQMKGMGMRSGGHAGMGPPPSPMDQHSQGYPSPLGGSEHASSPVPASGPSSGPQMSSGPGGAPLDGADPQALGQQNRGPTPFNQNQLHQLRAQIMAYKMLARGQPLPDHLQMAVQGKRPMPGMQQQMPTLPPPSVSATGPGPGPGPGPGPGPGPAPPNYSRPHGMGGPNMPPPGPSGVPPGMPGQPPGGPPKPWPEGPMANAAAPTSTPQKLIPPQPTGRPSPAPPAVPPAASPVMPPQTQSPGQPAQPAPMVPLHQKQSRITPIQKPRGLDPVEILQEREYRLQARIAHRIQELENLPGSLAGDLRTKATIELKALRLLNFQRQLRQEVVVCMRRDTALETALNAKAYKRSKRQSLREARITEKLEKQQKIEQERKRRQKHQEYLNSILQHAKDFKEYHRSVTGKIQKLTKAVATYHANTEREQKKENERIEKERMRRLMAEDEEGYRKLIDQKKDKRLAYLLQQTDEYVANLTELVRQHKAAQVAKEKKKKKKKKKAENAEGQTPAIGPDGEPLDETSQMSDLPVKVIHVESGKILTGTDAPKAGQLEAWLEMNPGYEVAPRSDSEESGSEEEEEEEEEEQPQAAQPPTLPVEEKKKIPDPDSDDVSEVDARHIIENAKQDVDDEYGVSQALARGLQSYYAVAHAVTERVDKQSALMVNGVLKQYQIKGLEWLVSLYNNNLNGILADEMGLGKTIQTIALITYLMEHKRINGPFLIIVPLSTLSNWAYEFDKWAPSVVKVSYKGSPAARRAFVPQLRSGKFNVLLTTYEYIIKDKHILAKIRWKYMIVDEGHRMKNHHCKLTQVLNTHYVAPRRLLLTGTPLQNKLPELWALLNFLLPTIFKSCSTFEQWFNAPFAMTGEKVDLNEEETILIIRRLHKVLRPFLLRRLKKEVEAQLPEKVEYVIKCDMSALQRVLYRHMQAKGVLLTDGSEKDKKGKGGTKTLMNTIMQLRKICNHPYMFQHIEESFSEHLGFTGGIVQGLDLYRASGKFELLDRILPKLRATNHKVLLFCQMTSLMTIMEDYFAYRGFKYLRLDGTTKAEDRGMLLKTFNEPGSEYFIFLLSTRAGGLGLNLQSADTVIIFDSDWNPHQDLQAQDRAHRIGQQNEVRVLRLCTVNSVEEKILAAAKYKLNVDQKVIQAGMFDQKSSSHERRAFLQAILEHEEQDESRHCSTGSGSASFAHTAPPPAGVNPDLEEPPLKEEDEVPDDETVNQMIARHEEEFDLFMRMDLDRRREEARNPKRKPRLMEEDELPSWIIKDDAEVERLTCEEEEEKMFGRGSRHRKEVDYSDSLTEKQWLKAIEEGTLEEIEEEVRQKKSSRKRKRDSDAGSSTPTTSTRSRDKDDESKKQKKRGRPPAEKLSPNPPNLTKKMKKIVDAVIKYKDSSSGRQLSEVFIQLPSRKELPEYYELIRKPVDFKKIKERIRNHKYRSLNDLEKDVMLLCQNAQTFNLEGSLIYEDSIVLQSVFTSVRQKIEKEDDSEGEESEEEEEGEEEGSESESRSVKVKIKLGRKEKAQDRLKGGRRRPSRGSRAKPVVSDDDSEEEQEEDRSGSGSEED

COMPOUND: C#Cc1ccc(CNC(=O)[C@@H]2C[C@@H](O)CN2C(=O)[C@@H](NC(=O)C2CC3(C2)CN(c2cnc(N4CCC(N5CCN6c7cc(-c8ccccc8O)nnc7NC[C@H]6C5)CC4)cn2)C3)C(C)(C)C)cc1
DC50: 0.01 to 0.1 µM

COMPOUND: C#Cc1ccc(CNC(=O)[C@@H]2C[C@@H](O)CN2C(=O)[C@@H](NC(=O)N2CC3(CC(N4CCN([C@H]5CC[C@H](N6CCc7[nH]c8nnc(-c9ccccc9O)cc8c7[C@H]6C)CC5)CC4)C3)C2)C(C)(C)C)cc1
DC50: 0.01 to 0.1 µM

COMPOUND: CC#Cc1ccc(CNC(=O)[C@@H]2C[C@@H](O)CN2C(=O)[C@@H](NC(=O)[C@H]2CCC3(CC2)C[C@H](N2CCC(c4cnc(N5CCN6c7cc(-c8ccccc8O)nnc7NC[C@H]6C5)nc4)CC2)C3)C(C)(C)C)cc1 (single isomer, unassigned) [I-117]
DC50: > 0.1 µM

COMPOUND: Cc1ncsc1-c1ccc(CNC(=O)[C@@H]2C[C@@H](O)CN2C(=O)C(c2cc(OCCCCN3CCC(c4cnc(N5CCc6[nH]c7nnc(-c8ccccc8O)cc7c6[C@H]5C)nc4)CC3)no2)C(C)C)cc1 (some centres unmarked)
DC50: 0.001 to 0.01 µM

COMPOUND: Cc1ncsc1-c1ccc(CNC(=O)[C@@H]2C[C@@H](O)CN2C(=O)[C@@H](NC(=O)[C@H]2CC3(C2)C[C@H](N2CCC(N4CCC(c5ccc6[nH]c7nnc(-c8ccccc8O)cc7c6c5)CC4)CC2)C3)C(C)(C)C)cc1 (single isomer, unassigned) [I-29]
DC50: > 0.1 µM

COMPOUND: C#Cc1ccc(CNC(=O)[C@@H]2C[C@@H](O)CN2C(=O)[C@@H](NC(=O)C2CCC3(CC2)CC(N2CCC(N4CCC[C@@H](C(=O)N5CCN6c7cc(-c8ccccc8O)nnc7NC[C@H]6C5)C4)CC2)C3)C(C)(C)C)cc1 (single isomer, unassigned)
DC50: > 0.1 µM

COMPOUND: Cn1nccc1-c1ccc(CNC(=O)[C@@H]2C[C@@H](O)CN2C(=O)[C@@H](NC(=O)[C@H]2CC[C@@H](c3ccc(-c4cnc(N5CCN6c7cc(-c8ccccc8O)nnc7NC[C@H]6C5)nc4)cc3)CC2)C(C)(C)C)cc1 (single isomer, unassigned)
DC50: 0.001 to 0.01 µM

COMPOUND: Cc1ncsc1-c1ccc(CNC(=O)[C@@H]2C[C@@H](O)CN2C(=O)C(c2cc(OCCCCN3CCC(c4cnc(N5CCN6c7cc(-c8ccccc8O)nnc7NC[C@H]6C5)nc4)CC3)no2)C(C)C)cc1 (some centres unmarked)
DC50: 0.001 to 0.01 µM

---

Item-by-item account of Dmax
Biological target: SMARCA4 (Homo sapiens)
Construct: SMARCA2/SMARCA4 protein degradation selectivity in MV4-11 cells; endogenous in cells; host or cells: MV4-11
Test: SMARCA4 Western blot degradation in MV4-11 cells
Type: cell-based
Settings: MV4-11, MV4-11 cells, 24 h; read-out: SMARCA4 MSD MV411 degradation 24 h: average Dmax %
Procedure: Example 11. SMARCA2 and SMARCA4 Western Blot MV4-11 Degradation Cells were seeded into 6-well plates (MV4-11:4×10^6 cells/well/1 ml) and 1 ml of 2× compound solution was added into the well to make the final concentration and the plates were mixed well and incubated for 24 hours (No cytotoxicity was observed). The cell were collected with media and spun at 3000 rpm for 5 minutes. […] The membrane was washed three times with 5 minutes each and lastly the LiCOR was read. […]

MOLECULE: C#Cc1ccc(CNC(=O)[C@@H]2C[C@@H](O)CN2C(=O)[C@@H](NC(=O)[C@H]2CC3(C2)C[C@H](c2cnc(N4CCC(N5CCN6c7cc(-c8ccccc8O)nnc7NC[C@H]6C5)CC4)nc2)C3)C(C)(C)C)cc1 (single isomer, unassigned) [I-301]
TESTED_TARGET: SMARCA4 (Homo sapiens)
Dmax: > 90%

MOLECULE: Cc1ncsc1-c1ccc(CNC(=O)[C@@H]2C[C@@H](O)CN2C(=O)[C@@H](NC(=O)C2(F)CC2)C(C)(C)C)c(OC2CCN(Cc3cnc(N4CCc5[nH]c6nnc(-c7ccccc7O)cc6c5[C@@H]4C)nc3)CC2)c1 (single isomer, unassigned) [I-43]
TESTED_TARGET: SMARCA4 (Homo sapiens)
Dmax: < 50%

MOLECULE: Cc1ncsc1-c1ccc(CNC(=O)[C@@H]2C[C@@H](O)CN2C(=O)[C@@H](NC(=O)C2CC3(C2)CC(N2CCC(N4CCC(N5CCN6c7cc(-c8ccccc8O)nnc7NC[C@H]6C5)CC4)CC2)C3)C(C)(C)C)cc1 (stereo partly shown) [I-75]
TESTED_TARGET: SMARCA4 (Homo sapiens)
Dmax: < 50%

MOLECULE: C#Cc1ccc(CNC(=O)[C@@H]2C[C@@H](O)CN2C(=O)[C@@H](NC(=O)C2CCN(C[C@H]3CC[C@@H](N4CCc5[nH]c6nnc(-c7ccccc7O)cc6c5[C@H]4C)CC3)CC2)C(C)(C)C)cc1 (single isomer, unassigned) [I-201]
TESTED_TARGET: SMARCA4 (Homo sapiens)
Dmax: 50 to 70%

Data provenance is patent US20250170248A1.
